Molecular target: HIV-1 YU2 gp120 (Human immunodeficiency virus type 1 group M subtype B, UniProt P35961)
Construct: made in house; host or cells: Drosophila S2 cells
Type: binding
Settings: Table 11, dissociation rate
*1 amine or outer side, *2 acyl side, *3 side chain or, on linkers, in order; H or OH if unused. Where a SMILES comes first, the peptide text is derived from it. [ ]: non-standard residue; d: D form. X1 = O=C([C@@H]1C[C@H](n2cc([C]34[CH]5[CH]6[CH]7[CH]3[Fe]6754389%10[CH]4[CH]3[CH]8[CH]9[CH]4%10)nn2)CN1[*:1])[*:2]
QUANTITY: dissociation rate constant (koff)

State its dissociation rate constant (koff): CC[C@H](C)[C@H](NC(=O)[C@H](CC(N)=O)NC(=O)[C@H](CC(N)=O)NC(=O)[C@@H](N)CCC(=O)O)C(=O)N1C[C@@H](n2cc([C]34[CH]5[CH]6[CH]7[CH]3[Fe]6754389%10[CH]4[CH]3[CH]8[CH]9[CH]4%10)nn2)C[C@H]1C(=O)N[C@@H](Cc1c[nH]c2ccccc12)C(=O)N[C@@H](CO)C(N)=O (stereo partly shown) [UM23] (H-ENNI[X1]WS-NH2; N-terminus and C-terminus assumed)
3.4E−03 ± 0.2 1/S

====

Listed below: dissociation rate constant (koff) values for each entry.
Target: HIV-1 YU2 gp120 (Human immunodeficiency virus type 1 group M subtype B)
Construct: made in house; host or cells: Drosophila S2 cells
Type: binding
Conditions: Table 11, dissociation rate
*1 amine or outer side, *2 acyl side, *3 side chain or, on linkers, in order; H or OH if unused. Where a SMILES comes first, the peptide text is derived from it. [ ]: non-standard residue; d: D form. X1 = O=C([C@@H]1C[C@H](n2cc([C]34[CH]5[CH]6[CH]7[CH]3[Fe]6754389%10[CH]4[CH]3[CH]8[CH]9[CH]4%10)nn2)CN1[*:1])[*:2]; Cit = NC(=O)NCCC[C@H](N)C(=O)O

Please review the following examples before continuing.
[
  {
    "MOLECULE": "CC[C@H](C)[C@H](NC(=O)[C@H](CC(N)=O)NC(=O)[C@H](CC(N)=O)NC(=O)[C@@H](N)CCCNC(N)=O)C(=O)N1C[C@@H](n2cc([C]34[CH]5[CH]6[CH]7[CH]3[Fe]6754389%10[CH]4[CH]3[CH]8[CH]9[CH]4%10)nn2)C[C@H]1C(=O)N[C@@H](Cc1c[nH]c2ccccc12)C(=O)N[C@@H](CO)C(N)=O (stereo partly drawn) [UM24] (H-[Cit]NNI[X1]WS-NH2; N-terminus and C-terminus assumed)",
    "STUDY_SYSTEM": "HIV-1 YU2 gp120 (Human immunodeficiency virus type 1 group M subtype B)",
    "RECORDED_MEASUREMENT": "2.9E−03 ± 1.2 1/S"
  },
  {
    "MOLECULE": "CC[C@H](C)[C@H](NC(=O)[C@H](CC(N)=O)NC(=O)[C@@H](N)CCCNC(=N)N)C(=O)N1C[C@@H](n2cc([C]34[CH]5[CH]6[CH]7[CH]3[Fe]6754389%10[CH]4[CH]3[CH]8[CH]9[CH]4%10)nn2)C[C@H]1C(=O)N[C@@H](Cc1c[nH]c2ccccc12)C(=O)N[C@@H](CO)C(N)=O (stereo partly drawn) [UM32] (H-RNI[X1]WS-NH2)",
    "STUDY_SYSTEM": "HIV-1 YU2 gp120 (Human immunodeficiency virus type 1 group M subtype B)",
    "RECORDED_MEASUREMENT": "3.1E−03 ± 1.5 1/S"
  }
]

Proceed to the following item.
State its dissociation rate constant (koff): CC[C@H](C)[C@H](NC(=O)[C@@H](N)CCCNC(=N)N)C(=O)N[C@@H](CC(N)=O)C(=O)N[C@@H](CC(N)=O)C(=O)N[C@H](C(=O)N1C[C@@H](n2cc([C]34[CH]5[CH]6[CH]7[CH]3[Fe]6754389%10[CH]4[CH]3[CH]8[CH]9[CH]4%10)nn2)C[C@H]1C(=O)N[C@@H](Cc1c[nH]c2ccccc12)C(=O)N[C@@H](CO)C(N)=O)[C@@H](C)CC (stereo partly drawn) [UM11] (H-RINNI[X1]WS-NH2; N-terminus and C-terminus assumed)
2.1E−02 ± 0.6 1/S

====

Listed below: dissociation rate constant (koff) values for each entry.
Biological target: HIV-1 YU2 gp120 (Human immunodeficiency virus type 1 group M subtype B, UniProt P35961)
Construct: made in house; host or cells: Drosophila S2 cells
Type: binding
Conditions: Table 11, dissociation rate
Procedure: Surface plasmon resonance (SPR) interaction analyses were performed on a Biacore® 3000 optical biosensor (GE). All experiments were carried out at 25° C. using standard PBS, pH 7.4, with 0.005% Surfactant P20. Regeneration of the surface was achieved by a one 5-second pulse of 10 mM glycine, pH 1.5. SPR data analyses were performed using BIAEvaluation 4.0 software (GE). […] Experimental data were fitted to a simple 1:1 binding model with a parameter included for mass transport. […]
*1 amine or outer side, *2 acyl side, *3 side chain or, on linkers, in order; H or OH if unused. Where a SMILES comes first, the peptide text is derived from it. [ ]: non-standard residue; d: D form. X1 = O=C([C@@H]1C[C@H](n2cc([C]34[CH]5[CH]6[CH]7[CH]3[Fe]6754389%10[CH]4[CH]3[CH]8[CH]9[CH]4%10)nn2)CN1[*:1])[*:2]

[
  {
    "MOLECULE": "CC[C@H](C)[C@H](N)C(=O)N[C@@H](CC(N)=O)C(=O)N[C@@H](CC(N)=O)C(=O)N[C@H](C(=O)N1C[C@@H](n2cc([C]34[CH]5[CH]6[CH]7[CH]3[Fe]6754389%10[CH]4[CH]3[CH]8[CH]9[CH]4%10)nn2)C[C@H]1C(=O)N[C@@H](Cc1c[nH]c2ccccc12)C(=O)N[C@@H](CO)C(N)=O)[C@@H](C)CC (some centres unmarked) [UM21] (H-INNI[X1]WS-NH2; N-terminus and C-terminus assumed)",
    "RECORDED_MEASUREMENT": "1.4E−03 ± 0.5 1/S"
  },
  {
    "MOLECULE": "CC[C@H](C)[C@H](NC(=O)[C@@H](N)CCC(=O)O)C(=O)N[C@@H](CC(N)=O)C(=O)N[C@@H](CC(N)=O)C(=O)N[C@H](C(=O)N1C[C@@H](n2cc([C]34[CH]5[CH]6[CH]7[CH]3[Fe]6754389%10[CH]4[CH]3[CH]8[CH]9[CH]4%10)nn2)C[C@H]1C(=O)N[C@@H](Cc1c[nH]c2ccccc12)C(=O)N[C@@H](CO)C(N)=O)[C@@H](C)CC (some centres unmarked) [UM13] (H-EINNI[X1]WS-NH2; N-terminus and C-terminus assumed)",
    "RECORDED_MEASUREMENT": "3.1E−03 ± 2 1/S"
  },
  {
    "MOLECULE": "CSCC[C@H](NC(=O)[C@H](CCSC)NC(=O)[C@H](C)NC(=O)[C@H](CCC(=O)O)NC(=O)[C@H](CO)NC(=O)[C@H](Cc1c[nH]c2ccccc12)NC(=O)[C@@H]1C[C@H](n2cc([C]34[CH]5[CH]6[CH]7[CH]3[Fe]6754389%10[CH]4[CH]3[CH]8[CH]9[CH]4%10)nn2)CN1)C(N)=O (some centres unmarked) [UM10] (H-[X1]WSEAMM-NH2; N-terminus and C-terminus assumed)",
    "RECORDED_MEASUREMENT": "8.90E−04 ± 1.2 1/S"
  }
]

State its dissociation rate constant (koff): CC[C@H](C)[C@H](NC(=O)[C@H](CC(N)=O)NC(=O)[C@@H](N)CCC(=O)O)C(=O)N1C[C@@H](n2cc([C]34[CH]5[CH]6[CH]7[CH]3[Fe]6754389%10[CH]4[CH]3[CH]8[CH]9[CH]4%10)nn2)C[C@H]1C(=O)N[C@@H](Cc1c[nH]c2ccccc12)C(=O)N[C@@H](CO)C(N)=O (some centres unmarked) [UM33] (H-ENI[X1]WS-NH2)
1.8E−03 ± 0.8 1/S

====

Listed below: dissociation rate constant (koff) values for each entry.
Molecular target: HIV-1 YU2 gp120 (Human immunodeficiency virus type 1 group M subtype B, UniProt P35961)
Construct: made in house; host or cells: Drosophila S2 cells
Type: binding
Conditions: Table 11, dissociation rate
*1 amine or outer side, *2 acyl side, *3 side chain or, on linkers, in order; H or OH if unused. Where a SMILES comes first, the peptide text is derived from it. [ ]: non-standard residue; d: D form. X1 = O=C([C@@H]1C[C@H](n2cc([C]34[CH]5[CH]6[CH]7[CH]3[Fe]6754389%10[CH]4[CH]3[CH]8[CH]9[CH]4%10)nn2)CN1[*:1])[*:2]

[
  {
    "MOLECULE": "CC[C@H](C)[C@H](NC(=O)[C@H](CC(N)=O)NC(=O)[C@@H](N)CC(N)=O)C(=O)N1C[C@@H](n2cc([C]34[CH]5[CH]6[CH]7[CH]3[Fe]6754389%10[CH]4[CH]3[CH]8[CH]9[CH]4%10)nn2)C[C@H]1C(=O)N[C@@H](Cc1c[nH]c2ccccc12)C(N)=O (some centres unmarked) [UM17] (H-NNI[X1]W-NH2)",
    "RECORDED_MEASUREMENT": "6.0E−03 ± 1.25 1/S"
  }
]

Proceed to the following item.
State its dissociation rate constant (koff): CC[C@H](C)[C@H](NC(=O)[C@H](CC(N)=O)NC(=O)[C@@H](N)CC(N)=O)C(=O)N1C[C@@H](n2cc([C]34[CH]5[CH]6[CH]7[CH]3[Fe]6754389%10[CH]4[CH]3[CH]8[CH]9[CH]4%10)nn2)C[C@H]1C(=O)N[C@@H](Cc1c[nH]c2ccccc12)C(=O)N[C@@H](CO)C(N)=O (some centres unmarked) [UM31] (H-NNI[X1]WS-NH2)
7.8E−03 ± 1.1 1/S
